The entries below are paired with their reported Emax.
Target or test system: human MC4R (Homo sapiens, UniProt P32245)
Construct: host or cells: HEK-293 cells stably expressing the GScAMP22F split-luciferase cAMP sensor and hMC4R, G418 selection
Sequence (P32245 whole entry): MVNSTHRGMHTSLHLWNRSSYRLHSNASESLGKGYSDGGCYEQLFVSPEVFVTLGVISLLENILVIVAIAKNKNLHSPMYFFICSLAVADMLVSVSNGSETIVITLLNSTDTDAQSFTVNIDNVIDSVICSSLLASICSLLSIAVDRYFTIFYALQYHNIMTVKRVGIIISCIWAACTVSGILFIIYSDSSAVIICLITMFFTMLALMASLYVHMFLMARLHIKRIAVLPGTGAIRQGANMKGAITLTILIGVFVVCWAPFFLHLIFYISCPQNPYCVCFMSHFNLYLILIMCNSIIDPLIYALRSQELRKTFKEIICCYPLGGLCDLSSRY
Protocol details: split-luciferase cAMP sensor assay, agonist mode (measurement window 1), hMC4R
Assay type: cell-based
Recorded conditions: agonist mode, hMC4R stable cell line; read-out: MC4R cAMP % max activation
Positions of bridges follow the written chain, without caps; N, C: chain ends. Non-standard residues stand in square brackets, D forms with d. Residues, ends and D or L forms follow the SMILES beside them. dPhe(4-Br) = N[C@H](Cc1ccc(Br)cc1)C(=O)O; dAbu = CC[C@@H](N)C(=O)O
Give a bare numeral; the unit % is implied.

- Compound: "CC[C@H]1NC(=O)[C@@H](NC(=O)[C@H](CCCNC(=N)N)NC(C)=O)CSSC[C@@H](C(N)=O)NC(=O)[C@@H](Cc2c[nH]c3ccccc23)NC(=O)[C@H](CCCNC(=N)N)NC(=O)[C@@H](Cc2ccc(Br)cc2)NC(=O)[C@H](CCCNC(=N)N)NC1=O [CTX-1247] (Ac-RC[dAbu]R[dPhe(4-Br)]R[dW]C-NH2; disulfide 2-8 (inferred))"
  Emax / %: 75

Query CC(=O)N[C@@H](CCCNC(=N)N)C(=O)N[C@H]1CSSC[C@@H](C(=O)N[C@@H](CCCNC(=N)N)C(=O)N[C@@H](Cc2ccccc2)C(N)=O)NC(=O)[C@@H](Cc2c[nH]c3ccccc23)NC(=O)[C@H](CCCNC(=N)N)NC(=O)[C@@H](Cc2ccc(Br)cc2)NC(=O)[C@H](CCCNC(=N)N)NC(=O)[C@@H](C)NC1=O [CTX-1220] (Ac-RC[dA]R[dPhe(4-Br)]R[dW]CRF-NH2; disulfide 2-8 (inferred)) yields Emax of 76
